As shown below, each of these compounds has a reported NUDT7 value.
Target: NUDT7 (Homo sapiens, UniProt P0C024)
Construct: residues 14-235, E. coli, pNIC28-Bsa4, N-terminal His6 tag removed by TEV, construct 26672 Da
Sequence (P0C024 14-235): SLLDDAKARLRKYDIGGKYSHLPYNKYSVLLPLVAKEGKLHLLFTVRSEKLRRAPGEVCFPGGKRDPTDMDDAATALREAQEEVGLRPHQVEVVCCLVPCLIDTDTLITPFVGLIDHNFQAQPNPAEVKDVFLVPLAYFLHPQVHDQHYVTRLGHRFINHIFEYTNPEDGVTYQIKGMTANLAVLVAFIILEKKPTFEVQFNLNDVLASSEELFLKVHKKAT
Design: Intact protein LC/MS covalent labelling, fragments in pools of five, 200 uM each, 4 °C
Conditions: 24 h, 4 °C, pool of five; 200 µM; covalent
attribute measured: NUDT7

compound | experimental result
O=C(CCl)NC(=O)NCc1ccco1 | 0
COC(=O)C1CN(C(=O)CCl)c2ccccc2O1 (stereo not drawn) | 0
C=CC(=O)N1CCCC1c1cccc2c1OCCO2 (stereo not drawn) | 0
Cc1ccc(NC(=O)CCl)cc1S(N)(=O)=O | 0.1
CC(NC(=O)CCl)c1ccc2ccccc2c1 (stereo not drawn) | 0.31
C=CC(=O)NCC1CCOC2(CCC2)C1 (stereo not drawn) | 0
C=CC(=O)Nc1ccccc1C(F)(F)F | 0
CC(C)(C)NC(=O)CN1CCN(C(=O)CCl)CC1.Cl | 0.08
CN(C(=O)CCl)C1(C#N)CCCCC1 | 0
C=CC(=O)NCC1CCC2(CCOCC2)C1O (stereo not drawn) | 0.11
CS(=O)(=O)c1ccc(F)c(NC(=O)CCl)c1 | 0
O=C(CCl)Nc1cc(Cl)ccc1Cl | 0.06
COC(=O)NC(=O)CCl | 0
COC(=O)c1cccc(NC(=O)CCl)c1O | 0.1
Cc1cc(NC(=O)CCl)n(C)n1 | 0
N#CC(c1ccc(F)cc1)N1CCN(C(=O)CCl)CC1 (stereo not drawn) | 0
Cc1oc(NC(=O)CCl)c(C#N)c1C | 0
O=C(CCl)NNC(=O)c1ccccc1F | 0
O=C(CCl)NC(=O)Nc1ccc(Br)cc1 | 0.17
C=CC(=O)N1CCCN(C(=O)c2cc(Cl)cn2C)CC1 | 0
O=C(CCl)N1CCCC1c1ccc2c(c1)OCCO2 (stereo not drawn) | 1
COc1ccc(C(=O)NC(=O)CCl)cc1 | 0
C=CC(=O)Nc1nc(C)cc(C)n1 | 0.34
CC(NC(=O)CCl)c1ccc(F)cc1 (stereo not drawn) | 0.07
O=C(Nc1ccccc1)C1CCN(C(=O)CCl)CC1 | 0
O=C(CCl)Nc1nc2ccc(Br)cc2s1 | 1
CS(=O)(=O)c1ccccc1NC(=O)CCl | 0
O=C(CCl)N1CCN(S(=O)(=O)c2ccc(F)c(Cl)c2)CC1 | 0.12
CC(C)(C)C(NC(=O)CCl)c1cccs1 (stereo not drawn) | 0.09
O=C(CCl)Nc1cccc(I)c1 | 0.24
C=CC(=O)Nc1ccc(F)cc1 | 0
C=CC(=O)NCC1CC12CCOCC2 (stereo not drawn) | 0
C=CC(=O)N1CCC(S(=O)(=O)C(C)C)CC1 | 0
C=CC(=O)N1CCN(C(=O)CN2C(=O)CCC2=O)CC1 | 0.08
CN1CCN(C(=O)CCl)CC1 | 0
C=CC(=O)N1CCCC(Oc2ncccc2F)C1 (stereo not drawn) | 0
Cc1nc(NC(=O)CCl)sc1-c1ccccc1 | 0.36
C=CC(=O)N1CCC(CN2C(=O)CNC2=O)C1 (stereo not drawn) | 0
CNC(=O)c1ccc(NC(=O)CCl)cc1 | 0

* * *

Assay: in vitro
Parameters: species or system CCD841, HEK293
Details: human, hb2 cells, read-out: HB-2 Cells Viability (%)
As shown below, each of these compounds has a reported viability at 48 h, 10 µM value.
attribute measured: viability at 48 h, 10 µM (%)

compound | attribute measured | experimental result
O=C(CCl)N(C1CCCC1)C1CC1 | viability at 48 h, 10 µM | 102
O=C(CCl)Nc1ccc(Br)cc1 | viability at 48 h, 10 µM | 12.2
C=CC(=O)N1CCC2(CCc3ccccc3O2)C1 (stereo not shown) | viability at 48 h, 10 µM | 101
COc1ccc(NC(=O)CCl)cn1 | viability at 48 h, 10 µM | 62
O=C(CCl)Nc1ccccc1N1CCCCC1 | viability at 48 h, 10 µM | 111
CC(C)(C)c1ccc(NC(=O)CCl)cc1 | viability at 48 h, 10 µM | 12.6
C=CC(=O)N1CCn2c(cc3ccc(Cl)cc32)C1 | viability at 48 h, 10 µM | 98.2

# credit: paper PMC6556873
